test.details: inhibitors of firefly luciferase expression or activity, dose response, H4 neuroglioma cells, luminescence (AID 1990)
Type: functional, cell-based
The source made the active and inactive calls.
readout.label: EC50

[
  {
    "compound": "COC(=O)C1=C(C)N(Cc2ccccc2)C(NCc2cccc(C(F)(F)F)c2)=N[C@H]1c1cccc(F)c1",
    "readout.label": "EC50",
    "observed.value": "8.28 µM (active)"
  },
  {
    "compound": "CC(=O)c1c(COC(=O)c2ccco2)nc2ccccc2[n+]1[O-]",
    "readout.label": "EC50",
    "observed.value": "> 120 µM (not active)"
  },
  {
    "compound": "COc1cc2c(cc1OC)-c1cc(Nc3ccccc3C)nc(=O)n1CC2",
    "readout.label": "EC50",
    "observed.value": "15.6 µM (active)"
  },
  {
    "compound": "CCOc1ccccc1Nc1cc2n(c(=O)n1)CCc1cc(OC)c(OC)cc1-2",
    "readout.label": "EC50",
    "observed.value": "47.8 µM (active)"
  },
  {
    "compound": "CCOc1ccc(S(=O)(=O)N2CCCC(C(=O)NCc3cccnc3)C2)cc1C (stereo not given)",
    "readout.label": "EC50",
    "observed.value": "14.2 µM (active)"
  }
]

###

target.or.test.system: Sentrin-specific protease 8 (Homo sapiens, UniProt Q96LD8);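 further: luminescence read-out of SENP8 inhibition, dose-response confirmation following an ultra-high-throughput screen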
Sequence (Q96LD8 whole entry): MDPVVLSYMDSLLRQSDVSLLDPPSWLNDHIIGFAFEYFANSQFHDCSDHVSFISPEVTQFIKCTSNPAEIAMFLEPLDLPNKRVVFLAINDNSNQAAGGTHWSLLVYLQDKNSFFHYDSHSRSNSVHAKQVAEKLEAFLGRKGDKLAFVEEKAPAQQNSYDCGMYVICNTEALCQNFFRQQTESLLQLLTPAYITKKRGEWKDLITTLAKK
Format: functional
Calls of active or inactive are those of the source.
Possible outcomes: t (active), f (inactive)

[
  {
    "smiles.notation": "O=C1c2ccccc2C(=O)N1CCSc1ccccc1",
    "assigned.category": "t"
  },
  {
    "smiles.notation": "Cc1n[nH]c(O)c1N=Nc1ccc(Br)c(Cl)c1",
    "assigned.category": "t"
  },
  {
    "smiles.notation": "C=CCNC1=C(Cl)C(=O)c2ccccc2C1=O",
    "assigned.category": "t"
  },
  {
    "smiles.notation": "CN(C)c1ccc(-c2nnc(-c3cccs3)o2)cc1",
    "assigned.category": "f"
  },
  {
    "smiles.notation": "Cc1[nH]n(-c2ccccc2)c(=O)c1N=Nc1cccc(C(=O)O)c1",
    "assigned.category": "t"
  }
]

###

target.or.test.system: Mu-type opioid receptor (Homo sapiens);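 further: U2OS cells with beta-arrestin recruitment to OPRM1 by beta-gal complementation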
Sequence (P35372 whole entry): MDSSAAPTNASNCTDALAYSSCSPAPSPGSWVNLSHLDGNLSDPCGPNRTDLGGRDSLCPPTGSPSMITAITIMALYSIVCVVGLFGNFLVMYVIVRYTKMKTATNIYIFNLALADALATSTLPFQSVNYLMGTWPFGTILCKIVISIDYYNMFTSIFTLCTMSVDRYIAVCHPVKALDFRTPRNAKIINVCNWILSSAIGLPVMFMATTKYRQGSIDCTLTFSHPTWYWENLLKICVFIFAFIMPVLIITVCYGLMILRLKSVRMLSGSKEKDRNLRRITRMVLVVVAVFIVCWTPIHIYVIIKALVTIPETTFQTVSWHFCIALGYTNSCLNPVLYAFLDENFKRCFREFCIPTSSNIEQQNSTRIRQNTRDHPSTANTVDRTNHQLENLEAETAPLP
Assay type: functional, cell-based
The source made the active and inactive calls.
Known EC50 of a selection of compounds

[
  {
    "compound": "COc1cccc(C(=O)NNC(=O)CCN2CCN(c3ccccc3)CC2)c1",
    "target.or.test.system": "Mu-type opioid receptor (Homo sapiens)",
    "EC50": "92.4 µM (inactive)"
  },
  {
    "compound": "OC(COCc1ccc(Cl)cc1)CN1CCN(c2ccccn2)CC1 (stereo not given)",
    "target.or.test.system": "Mu-type opioid receptor (Homo sapiens)",
    "EC50": "92.5 µM (inactive)"
  },
  {
    "compound": "Brc1cccc(CN2CCN(c3ncccn3)CC2)c1",
    "target.or.test.system": "Mu-type opioid receptor (Homo sapiens)",
    "EC50": "92.5 µM (inactive)"
  },
  {
    "compound": "O=C(CN1CCN(c2ccccn2)CC1)Nc1cccc(S(=O)(=O)N2CCCC2)c1",
    "target.or.test.system": "Mu-type opioid receptor (Homo sapiens)",
    "EC50": "92.5 µM (inactive)"
  },
  {
    "compound": "O=C(c1ccco1)N1CCN(Cc2ccc(Cl)cc2)CC1",
    "target.or.test.system": "Mu-type opioid receptor (Homo sapiens)",
    "EC50": "92.5 µM (inactive)"
  }
]

Data provenance is ChEMBL document CHEMBL1201862.
